Entry source: PubChem BioAssay (NCI)

system: OVCAR-3 ovarian; assay: NCI tumour cell line growth inhibition, 48 h; in the data active means GI50 below about 0.43 µM; inactive means the rest
Possible outcomes: active, inactive

Molecule: O=C(CC1Sc2ccccc2NC1=O)NNc1ccc(F)cc1 (stereo unspecified)
Assigned class: inactive
//
Molecule: CCS(=O)(=O)N1CCN(c2ccc(Nc3ncc(C(N)=O)c(NC4CC4)n3)cc2)CC1
Assigned class: inactive
//
Molecule: Nc1cc(N)c2nc(-c3ccccc3)c(NCc3ccc(Cl)c(Cl)c3)nc2c1
Assigned class: inactive
//
Molecule: CCOC(=O)CCSC1=CC(=O)c2nc3ccccc3c3ccnc1c23
Assigned class: inactive
//
Molecule: O=c1[nH]c(=O)n(C2OC(CO)C(O)C2O)cc1F (stereo unspecified)
Assigned class: active
//
Molecule: CCOC(=O)c1cc2c(n1Cc1ccccc1OC)-c1oncc1CCC2
Assigned class: inactive
//
Molecule: Nc1no[n+]([O-])c1-c1nnc2c(n1)-c1ccccc1C2=O
Assigned class: inactive
//
Molecule: C=CCN1C(=O)[C@]2(SC1=S)[C@H](c1cccc(Cl)c1)CN(C)[C@]21C(=O)NC2C=CC(Cl)=C[C@H]21 (stereo partly specified)
Assigned class: inactive
//
Molecule: OCC1OC(n2cnc3c(NCc4ccco4)ncnc32)C(O)C1O (stereo unspecified)
Assigned class: inactive
//
Molecule: Cc1ccc(/C(=C/C=C(C#N)C#N)Sc2nc3ccccc3s2)cc1
Assigned class: inactive
//
Molecule: Cc1ccc(NC2=CC(=O)C(=O)c3ccccc32)cc1
Assigned class: inactive
//
Molecule: CCOC(=O)c1ccc(NC(=O)c2cccc(NC3=C(Cl)C(=O)N(Cc4ccccc4)C3=O)c2)cc1
Assigned class: inactive
//
Molecule: COc1cc(NCCC2CCCCN2)c2ncccc2c1OC (stereo unspecified)
Assigned class: inactive
//
Molecule: COc1ccc2c(c1)C(=O)c1c-2n(CCCCl)c(=O)c2cc(N)ccc12
Assigned class: inactive
//
Molecule: C/C=C(\C)C(=O)O[C@@H]1C=CC(=O)O[C@H]1CNC(=O)[C@H](C)O
Assigned class: inactive
//
Molecule: C1=C\CCCCN2CC[C@H]3[C@H](CCCC/C=C\CCCN4C[C@@H](CCCCC/1)C[C@@H]3C4)C2
Assigned class: inactive

====

system: MALME-3M melanoma; experiment: NCI tumour cell line growth inhibition, 48 h
# reported TGI; entries follow
Property: TGI

Compound: COC(=O)[C@@H]1[C@H]2CC[C@]3(C)[C@@H](OC(C)=O)CC[C@H]3[C@@H]2CC[C@H]1C(C)=O
Tested target: MALME-3M melanoma
Recorded measurement: > 100 µM
//
Compound: O=S(=O)(CF)OCCCCOS(=O)(=O)CF
Tested target: MALME-3M melanoma
Recorded measurement: > 100 µM
//
Compound: OCC1OC(n2cnc3c(NCc4ccccc4O)ncnc32)C(O)C1O (stereo not drawn)
Tested target: MALME-3M melanoma
Recorded measurement: > 75.5 µM

====

system: UACC-257 melanoma; assay: NCI tumour cell line growth inhibition, 48 h

Compound: O=C(CCl)Nc1ccc(Cc2ccc(NC(=O)CCl)cc2)cc1
GI50: 2.78 µM

Compound: C=CCN1C(=O)[C@]2(SC1=S)[C@H](c1cccc(Cl)c1)CN(C)[C@]21C(=O)NC2C=CC(Cl)=C[C@H]21 (stereo partly drawn)
GI50: 12.2 µM

Compound: CN1/C(=C/C=C/c2n(Cc3ccc4ccccc4c3)c(Cl)c(Cl)[n+]2Cc2ccc3ccccc3c2)Oc2ccccc21
GI50: 0.338 µM

Compound: C=C1C(O)C2CC(C)(C)C(=O)C2=C(CC(C)C)C12CC2 (stereo not drawn)
GI50: > 100 µM

Compound: Nc1no[n+]([O-])c1-c1nnc2c(n1)-c1ccccc1C2=O
GI50: 1.93 µM

Compound: Cc1cn2c(/C=C3\C(=O)N(C)c4ccc(Cl)cc43)c(C)nc2s1
GI50: 3.37 µM

Compound: Cc1nn(-c2ccccc2)c2nc(C)n(-c3ccc(Br)cc3)c(=O)c12
GI50: 0.768 µM

Compound: CC(=O)c1ccc(Oc2c3ccccc3nc3occc23)cc1
GI50: 4.85 µM

Compound: Nc1cc(N)c2nc(-c3ccccc3)c(NCc3ccc(Cl)c(Cl)c3)nc2c1
GI50: 4.53 µM

Compound: CC1(C)CN(CCNc2nccc(-c3c(-c4cccc(O)c4)nc4sccn34)n2)S(=O)(=O)N1
GI50: 2.12 µM

Compound: Cc1ccc(NC2=CC(=O)C(=O)c3ccccc32)cc1
GI50: 1.43 µM

Compound: COc1ccc(NC(=O)c2cccc(C3CCc4c(cc(OC)c(OC)c4OC)O3)c2)cc1 (stereo not drawn)
GI50: 3.72 µM

Compound: NCCCNc1nc2ccccc2c2c(=O)c3cc(F)cc(Cl)c3sc12
GI50: 3.29 µM

====

system: HCT-15 colon; test: NCI tumour cell line growth inhibition, 48 h

Compound: C=C1C(=O)O[C@H]2[C@H]1CC/C(COC(=O)N[C@H](Cc1c[nH]c3ccccc13)C(=O)OC)=C\CC[C@@]1(C)O[C@@H]21
Tested target: HCT-15 colon
TGI: 3.43 µM

Compound: Cc1ccc(NC2=CC(=O)C(=O)c3ccccc32)cc1
Tested target: HCT-15 colon
TGI: 3.91 µM

Compound: CC(=O)OCC1=CC2CCC3C(C)(CCC[C@]3(C)COC(C)=O)C23CC[C@H]1C3 (stereo partly drawn)
Tested target: HCT-15 colon
TGI: > 100 µM

Compound: Cc1cc(C)c(C(=O)C(C)C(c2ccccc2)c2ccc(Cl)cc2)c(C)c1 (stereo not drawn)
Tested target: HCT-15 colon
TGI: > 100 µM

Compound: O=C(O)c1cc(Cl)cc(Cc2cc(Cl)cc(C(=O)O)c2O)c1O
Tested target: HCT-15 colon
TGI: > 100 µM

Compound: C/C(=C\CC/C=C(\C)CC/C=C(\C)CCC1SC1(C)C)CC/C=C(\C)CCC1OC1(C)C (stereo not drawn)
Tested target: HCT-15 colon
TGI: > 100 µM

Compound: COc1cc(-c2ccccc2)cn2c1nc1ccccc12
Tested target: HCT-15 colon
TGI: 43.2 µM

Compound: CCOC(=O)c1ccc(N(CCOS(=O)(=O)c2ccc(C)cc2)CCOS(=O)(=O)c2ccc(C)cc2)cc1
Tested target: HCT-15 colon
TGI: > 100 µM

====

Quick reference: GI50 of the listed items.
test system: RPMI-8226 leukemia; assay: NCI tumour cell line growth inhibition, 48 h
Property: GI50

Compound: CCC(=C(c1ccc(OCCN2CCCC2)cc1)c1ccc(OCCN2CCCC2)cc1)c1ccc(Cl)cc1
Recorded measurement: 0.674 µM

Compound: OCC1OC(n2cnc3c(NCc4ccco4)ncnc32)C(O)C1O (centres undefined)
Recorded measurement: 3 µM

Compound: CCOC(=O)c1cc2c(n1Cc1ccccc1OC)-c1oncc1CCC2
Recorded measurement: 4.11 µM

Compound: O=C(COc1cccc(/C=C2\Oc3ccc4ccccc4c3C2=O)c1)c1ccc([N+](=O)[O-])cc1
Recorded measurement: 1.12 µM

Compound: COc1ccc(-c2nnc(Nc3nc(O)c(C4=c5cc(Br)ccc5=NC4=O)s3)o2)cc1
Recorded measurement: 17.3 µM

Compound: Cc1cc(OCc2nn(CN3CCN(C)CC3)c(=S)n2/N=C/c2ccc(F)cc2)ccc1Cl
Recorded measurement: 16.8 µM

Compound: Cc1ccc(NC2=CC(=O)C(=O)c3ccccc32)cc1
Recorded measurement: 3.55 µM

Compound: COc1ccc2nc3ccccc3c(NCc3ccccc3)c2c1
Recorded measurement: 1.93 µM

Compound: O=C(CC1Sc2ccccc2NC1=O)NNc1ccc(F)cc1 (centres undefined)
Recorded measurement: 52 µM

====

system: MCF7 breast; assay: NCI tumour cell line growth inhibition, 48 h

Compound: O=C(O)c1[nH]c2c([N+](=O)[O-])cc([N+](=O)[O-])cc2c1C(=O)O
TGI: > 100 µM
--
Compound: Cc1ccc(O)c(C2=NNC(c3cccc(Cl)c3)C2)c1 (centres undefined)
TGI: > 100 µM
--
Compound: Cc1nn(C(=O)c2ccc(Cl)cc2)c2c1C(c1ccc(Cl)cc1)SC(N)=N2 (centres undefined)
TGI: > 10 µM
--
Compound: CC1(C)CC[C@]2(CO)CC[C@]3(C)C(=CC[C@@H]4[C@@]5(C)CCNCC(C)(C)[C@@H]5CC[C@]43C)[C@@H]2C1
TGI: 13.3 µM
--
Compound: O=C(CCN1CCCC1)c1ccc(Oc2ccc(F)cc2)cc1
TGI: 32.3 µM
--
Compound: COc1ccc(NC(=O)c2cccc(C3CCc4c(cc(OC)c(OC)c4OC)O3)c2)cc1 (centres undefined)
TGI: > 100 µM
--
Compound: COc1ccc(NC(/C(C(=O)C(=O)/C=C(\O)c2ccccc2)=C(\O)c2ccccc2)c2ccc(OC)cc2)cc1 (centres undefined)
TGI: > 100 µM
--
Compound: O=C(O)CCC(NC(=O)c1ccc(Oc2nc3ccccc3nc2-c2ccccc2)cc1)C(=O)O (centres undefined)
TGI: > 100 µM
--
Compound: COc1cc2c(cc1O)C(=O)O[C@@H]1CC=C3CCN(C)[C@H]3[C@H]21
TGI: > 25 µM
